Biological target: cyclooxygenase (COX-2) (Ovis aries, UniProt P79208)
Construct: gene PTGS2
Sequence (P79208 17-603): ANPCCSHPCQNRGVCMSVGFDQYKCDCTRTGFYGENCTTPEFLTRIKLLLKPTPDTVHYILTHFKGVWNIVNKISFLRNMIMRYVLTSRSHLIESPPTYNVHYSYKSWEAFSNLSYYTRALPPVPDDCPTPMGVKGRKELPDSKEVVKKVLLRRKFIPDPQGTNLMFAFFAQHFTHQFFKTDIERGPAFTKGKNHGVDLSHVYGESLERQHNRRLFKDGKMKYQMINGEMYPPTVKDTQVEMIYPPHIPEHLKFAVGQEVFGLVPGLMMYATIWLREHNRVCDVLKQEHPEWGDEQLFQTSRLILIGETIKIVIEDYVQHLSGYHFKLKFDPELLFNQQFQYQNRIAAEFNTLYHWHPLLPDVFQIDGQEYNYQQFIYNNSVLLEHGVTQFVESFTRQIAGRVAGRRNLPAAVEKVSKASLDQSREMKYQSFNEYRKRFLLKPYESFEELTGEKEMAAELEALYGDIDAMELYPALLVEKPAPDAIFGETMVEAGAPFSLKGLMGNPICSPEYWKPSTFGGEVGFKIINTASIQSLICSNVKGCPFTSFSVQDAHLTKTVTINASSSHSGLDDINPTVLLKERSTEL
Test: COX colorimetric inhibitor screening assay kit (Cayman), ovine recombinant COX-2
Assay type: biochemical
pIC50: −log10 of the molar value.
Quantity: pIC50

> print(dat)
                                   molecule  quantity  recorded.number
1  COc1ccc2cc([C@H](C)C(=O)O)ccc2c1 [naproxen, reference compound]     pIC50             5.09

Ref: paper PMC7587970
